Measured values drawn from patent US8178506B2 for this set.

- Tested on: HeLa cells
- PROCEDURE_TEXT: Cell cycle assay in HeLa cells
- Assay type: cell-based, human
- MEASUREMENT_SETUP: HeLa cells, 150 nM, 48 hours, relative to untreated control
In the oligonucleotide strings, read from the 5' end, every base follows the letter of its sugar. An asterisk marks phosphorothioate; unmarked linkages are phosphodiester. Other units and linkages are bracketed, terminal groups are in braces. A string of capitals states the bases alone. e = 2'-O-(2-methoxyethyl) (MOE); [5mC] = 5-methylcytosine; d = 2'-deoxy (DNA)
METRIC_NAME: % cells in cell cycle phase aneuploid (%)
Reply with just the number (in %).

# lookup: % cells in cell cycle phase aneuploid of 338797 (antisense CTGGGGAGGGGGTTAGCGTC; all 2'-MOE, all phosphorothioate, methylation of C not given here) [compound 338797]
125

# lookup: % cells in cell cycle phase aneuploid of 328744 (antisense e[5mC]*eG*eG*eA*eT*d[5mC]*d[5mC]*dT*dG*dT*dT*dA*d[5mC]*d[5mC]*dT*e[5mC]*eA*e[5mC]*e[5mC]*eA) [compound 328744]
178

# lookup: % cells in cell cycle phase aneuploid of 340350 (antisense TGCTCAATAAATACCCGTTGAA; all 2'-MOE, all phosphorothioate, methylation of C not given here) [compound 340350]
177

---

- Test system: BJ, B16-F10, T47D, T47Dp53 and HeLa cells
- PROCEDURE_TEXT: Cell cycle assay (propidium iodide flow cytometry), cell line panel
- Type: cell-based
- MEASUREMENT_SETUP: 150 nM oligomeric compound, 4.5 μg/ml LIPOFECTIN, after 72 hours, propidium iodide flow cytometry
In the oligonucleotide strings, read from the 5' end, every base follows the letter of its sugar. An asterisk marks phosphorothioate; unmarked linkages are phosphodiester. Other units and linkages are bracketed, terminal groups are in braces. A string of capitals states the bases alone. e = 2'-O-(2-methoxyethyl) (MOE); [5mC] = 5-methylcytosine
METRIC_NAME: S (percentage of cells in phase of the cell cycle) (%)
Reply with just the number (in %).

As a guide, the following entries are already answered.
327919 (antisense eG*eA*eA*eA*e[5mC]*e[5mC]*e[5mC]*eA*eG*e[5mC]*eA*eG*eA*e[5mC]*eA*eA*eT*eG*eT*eA*eG*e[5mC]*eT) [compound 327919]	30.3
327941 (antisense eA*eA*e[5mC]*e[5mC]*e[5mC]*eA*e[5mC]*e[5mC]*eG*eA*e[5mC]*eA*eG*e[5mC]*eA*eA*eT*eG*eA*eA*eT*eG*eT*eT) [compound 327941]	29.9

# input for lookup
# lookup: S (percentage of cells in phase of the cell cycle) of 327911 (antisense eG*e[5mC]*eT*eA*e[5mC]*e[5mC]*eT*eG*e[5mC]*eA*e[5mC]*eT*eG*eT*eA*eA*eG*e[5mC]*eA*e[5mC]*eT*eT*eT*eT) [compound 327911]
30.1

---

- Test system: HeLa cells
- PROCEDURE_TEXT: Cell cycle assay in HeLa cells
- Format: cell-based, human
- MEASUREMENT_SETUP: HeLa cells, 150 nM oligomeric compound, 24 hours, relative to untreated control (UTC = 100)
In the oligonucleotide strings, read from the 5' end, every base follows the letter of its sugar. An asterisk marks phosphorothioate; unmarked linkages are phosphodiester. Other units and linkages are bracketed, terminal groups are in braces. A string of capitals states the bases alone. e = 2'-O-(2-methoxyethyl) (MOE); [5mC] = 5-methylcytosine; d = 2'-deoxy (DNA)
METRIC_NAME: % cells in cell cycle phase G2/M
Provide the measurement as a number trailed by its unit.

As a guide, the following entries are already answered.
327889 (antisense eG*eT*eG*eG*eT*eA*eA*eT*e[5mC]*e[5mC]*e[5mC]*eT*eG*eG*e[5mC]*eA*eA*eT*eG*eT*eG*eA*eT) [compound 327889]	87%
327910 (antisense eT*eG*eA*eT*eA*eG*e[5mC]*e[5mC]*e[5mC]*eT*eG*eT*eA*e[5mC]*eA*eA*eT*eG*e[5mC]*eT*eG*e[5mC]*eT) [compound 327910]	118%
328374 (eA*eG*e[5mC]*eT*eT*dT*dA*dG*d[5mC]*dT*dG*dG*dG*dT*d[5mC]*eA*eG*eG*eA*e[5mC]; antisense) [compound 328374]	162%

# input for lookup
# lookup: % cells in cell cycle phase G2/M of 338678 (antisense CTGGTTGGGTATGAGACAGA; all 2'-MOE, all phosphorothioate, methylation of C not given here) [compound 338678]
131%
